Measured % control, VEGFR2 (DiscoverX) accompanies every entry in the list below.
# experimental system: VEGFR2 (Homo sapiens)
# Construct: purchased DiscoverX (KINOMEscan service); host or cells: E. coli BL21-derived host (T7 phage) or HEK-293
# Sequence (P35968 20-1356): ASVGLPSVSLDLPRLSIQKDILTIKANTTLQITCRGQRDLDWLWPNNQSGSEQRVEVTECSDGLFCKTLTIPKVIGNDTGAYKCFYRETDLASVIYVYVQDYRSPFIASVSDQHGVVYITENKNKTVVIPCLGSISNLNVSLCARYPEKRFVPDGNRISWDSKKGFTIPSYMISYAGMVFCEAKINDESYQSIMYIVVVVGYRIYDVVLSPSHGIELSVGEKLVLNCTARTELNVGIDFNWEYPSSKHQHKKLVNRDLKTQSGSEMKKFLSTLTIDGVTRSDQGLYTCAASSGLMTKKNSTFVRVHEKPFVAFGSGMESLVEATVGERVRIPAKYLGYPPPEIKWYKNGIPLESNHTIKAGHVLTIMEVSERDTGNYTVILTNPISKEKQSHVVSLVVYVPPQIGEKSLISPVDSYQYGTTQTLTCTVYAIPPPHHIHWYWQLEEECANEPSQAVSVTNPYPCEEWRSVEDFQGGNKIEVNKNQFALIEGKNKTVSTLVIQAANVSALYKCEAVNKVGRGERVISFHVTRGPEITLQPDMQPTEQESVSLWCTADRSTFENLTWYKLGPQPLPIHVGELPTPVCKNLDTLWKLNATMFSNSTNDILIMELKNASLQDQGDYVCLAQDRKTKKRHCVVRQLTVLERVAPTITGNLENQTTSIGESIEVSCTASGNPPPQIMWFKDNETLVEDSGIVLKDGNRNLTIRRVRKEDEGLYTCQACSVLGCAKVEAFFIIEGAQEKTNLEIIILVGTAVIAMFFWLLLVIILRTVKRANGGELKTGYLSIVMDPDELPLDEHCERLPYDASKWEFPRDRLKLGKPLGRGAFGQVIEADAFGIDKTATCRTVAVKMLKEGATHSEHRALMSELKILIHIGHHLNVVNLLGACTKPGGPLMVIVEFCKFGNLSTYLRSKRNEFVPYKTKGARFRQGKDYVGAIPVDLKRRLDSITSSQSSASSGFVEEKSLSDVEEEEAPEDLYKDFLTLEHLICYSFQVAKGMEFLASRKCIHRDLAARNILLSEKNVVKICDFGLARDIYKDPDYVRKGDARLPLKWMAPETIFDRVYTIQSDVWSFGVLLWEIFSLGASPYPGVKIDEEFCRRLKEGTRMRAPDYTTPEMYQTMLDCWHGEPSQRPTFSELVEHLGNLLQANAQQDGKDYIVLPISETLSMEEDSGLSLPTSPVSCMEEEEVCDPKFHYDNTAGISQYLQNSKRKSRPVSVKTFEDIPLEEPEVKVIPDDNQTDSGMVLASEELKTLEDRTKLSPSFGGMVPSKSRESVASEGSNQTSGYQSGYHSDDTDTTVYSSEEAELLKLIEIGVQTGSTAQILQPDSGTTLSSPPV
# method: DiscoverX KINOMEscan competition binding assay
# run conditions: compound 10 µM; lower values = higher affinity; below 35% = significant binding

# compound, % control, VEGFR2 (DiscoverX) (% control)
records = [
    ("CN(C)S(=O)(=O)c1cccc(C2=N/C(=C\\c3cccc(F)c3)C(=O)O2)c1 [DS74631]", 100),
    ("COCCCNC(=O)c1nc2c3c4c(sc3ncn2n1)CCC[C@H]4C [DS66846]", 100),
    ("Cc1cc(COC(=O)c2cnc3c(cnn3Cc3ccccc3)c2)on1 [K001MM013]", 90),
]

* * *

# experimental system: MET (Homo sapiens, UniProt P08581)
# Construct: purchased DiscoverX (KINOMEscan service); host or cells: E. coli BL21-derived host (T7 phage) or HEK-293
# method: DiscoverX KINOMEscan competition binding assay
# run conditions: compound 10 µM; lower values = higher affinity; below 35% = significant binding
# Procedure: Ligand binding experiments for the molecules selected from Profiles 1 and 2 towards nine kinases (EGFR, ErbB2, LCK, CDK2, BRAF, MET, p38α, PI3K and VEGFR2) and for molecules selected from Profiles 3 and 4 towards four kinases (EGFR, ErbB2, BRAF and VEGFR2) were carried out by DiscoverX using the supplied protocol as described in the Supplementary Materials. […]
Measured % control, MET (DiscoverX) accompanies every entry in the list below.

# compound, % control, MET (DiscoverX) / % control
rows = [
    ("COCCCNC(=O)c1nc2c3c4c(sc3ncn2n1)COC(C)(C)C4", 99),
    ("CC(C)n1ccc(=O)nc1SC1CCN(c2ccccc2F)C1=O (stereo not drawn)", 87),
    ("COCCCNC(=O)c1nc2c3c4c(sc3ncn2n1)CCC[C@H]4C", 92),
    ("C[C@H](COCC(F)(F)F)NC(=O)Cc1n[nH]c(=O)c2ccccc12", 100),
    ("Cc1cc(=O)n2nc(N(C)CC(=O)NCc3cccs3)sc2n1", 78),
    ("O=C(NCC1CC1)Nc1ccc(N2CCOC2=O)cc1", 85),
    ("O=C(O)c1cncnc1NCc1nc(-c2cnccn2)n[nH]1", 100),
    ("O=C(Cn1cnc2c(cnn2CCO)c1=O)NCc1ccccc1", 94),
    ("Cc1ccc(-n2cnnn2)cc1NC(=O)NC1CC1", 90),
    ("Cc1ccc(/C=C2\\N=C(c3cccc(S(=O)(=O)N(C)C)c3)OC2=O)s1", 95),
    ("COc1ccc(-c2nn(C(C)=O)c3c2C(=O)CC(C)(C)C3)cc1", 100),
    ("CCOCCCNC(=O)c1nc2c3c4c(sc3ncn2n1)CC[C@@H](C)C4", 100),
    ("CC1(C)C2CC=C(COC(=O)c3cnn4cccnc34)C1C2 (stereo not drawn)", 100),
    ("O=C1C[C@@H](c2noc(-c3ccc[nH]c3=O)n2)CN1Cc1ccccc1", 91),
    ("CC(=O)c1cc(CC(=O)N(C)C[C@H]2CCCCO2)cs1", 95),
]

* * *

# experimental system: PI3K (Homo sapiens)
# Sequence (P42336 whole entry): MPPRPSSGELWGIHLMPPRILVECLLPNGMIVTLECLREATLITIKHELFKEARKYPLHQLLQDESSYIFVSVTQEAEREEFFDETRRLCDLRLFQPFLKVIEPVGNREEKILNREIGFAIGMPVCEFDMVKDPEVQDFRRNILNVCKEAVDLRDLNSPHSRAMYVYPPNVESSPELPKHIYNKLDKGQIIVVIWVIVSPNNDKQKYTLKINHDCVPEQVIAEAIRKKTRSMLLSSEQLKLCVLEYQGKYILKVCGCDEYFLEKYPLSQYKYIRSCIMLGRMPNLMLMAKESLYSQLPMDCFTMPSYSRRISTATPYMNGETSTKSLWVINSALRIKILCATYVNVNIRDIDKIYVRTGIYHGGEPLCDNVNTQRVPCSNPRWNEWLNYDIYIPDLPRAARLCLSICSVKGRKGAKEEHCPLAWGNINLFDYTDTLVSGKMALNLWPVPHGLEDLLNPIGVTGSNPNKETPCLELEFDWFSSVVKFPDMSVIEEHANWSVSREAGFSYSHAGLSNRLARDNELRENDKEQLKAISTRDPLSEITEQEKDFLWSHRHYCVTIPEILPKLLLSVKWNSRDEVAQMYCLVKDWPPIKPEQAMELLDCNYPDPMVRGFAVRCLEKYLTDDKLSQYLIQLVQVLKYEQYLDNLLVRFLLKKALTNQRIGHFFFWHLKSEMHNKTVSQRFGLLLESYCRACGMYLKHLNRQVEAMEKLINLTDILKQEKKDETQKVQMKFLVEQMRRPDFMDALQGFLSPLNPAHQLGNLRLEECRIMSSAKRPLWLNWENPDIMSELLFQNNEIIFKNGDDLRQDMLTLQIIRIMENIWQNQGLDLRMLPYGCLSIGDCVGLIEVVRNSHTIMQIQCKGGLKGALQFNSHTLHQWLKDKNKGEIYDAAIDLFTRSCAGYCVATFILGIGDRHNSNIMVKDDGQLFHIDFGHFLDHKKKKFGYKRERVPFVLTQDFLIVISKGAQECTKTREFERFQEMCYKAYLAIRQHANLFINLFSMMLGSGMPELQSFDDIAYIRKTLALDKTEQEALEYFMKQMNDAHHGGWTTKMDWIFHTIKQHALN
# Sequence (P27986 whole entry partner): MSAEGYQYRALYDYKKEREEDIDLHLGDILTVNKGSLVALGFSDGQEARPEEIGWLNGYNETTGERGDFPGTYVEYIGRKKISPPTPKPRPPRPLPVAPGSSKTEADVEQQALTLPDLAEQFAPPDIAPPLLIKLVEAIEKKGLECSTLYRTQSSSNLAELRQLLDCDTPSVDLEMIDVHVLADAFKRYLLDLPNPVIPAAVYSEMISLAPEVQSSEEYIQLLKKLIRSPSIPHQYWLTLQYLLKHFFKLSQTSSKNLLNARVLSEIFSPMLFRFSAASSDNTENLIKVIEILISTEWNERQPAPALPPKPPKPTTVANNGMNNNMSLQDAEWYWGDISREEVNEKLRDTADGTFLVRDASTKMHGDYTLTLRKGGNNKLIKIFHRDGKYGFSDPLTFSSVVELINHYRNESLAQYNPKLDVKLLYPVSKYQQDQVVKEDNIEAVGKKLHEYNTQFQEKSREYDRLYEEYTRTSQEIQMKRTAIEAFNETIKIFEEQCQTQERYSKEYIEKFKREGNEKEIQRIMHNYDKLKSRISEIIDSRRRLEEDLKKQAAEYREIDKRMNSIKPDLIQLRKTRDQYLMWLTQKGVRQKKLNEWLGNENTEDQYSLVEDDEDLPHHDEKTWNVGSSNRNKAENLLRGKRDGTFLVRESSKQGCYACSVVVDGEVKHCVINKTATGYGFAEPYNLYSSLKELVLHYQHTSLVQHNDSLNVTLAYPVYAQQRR
# method: Eurofins in vitro kinase inhibition assay (HTRF, PIP3 displacement)
# Assay type: biochemical
# Set-up: purchased Eurofins Cerep (contract assay)
# run conditions: compound 20 µM; mean (SD); above 50% significant, 25-50% weak
metric: % inhibition of control activity, PI3K (Eurofins)

# molecule, reported measurement
data = [
    ("CN(C)S(=O)(=O)c1cccc(C2=N/C(=C\\c3cccc(F)c3)C(=O)O2)c1", "20 (5.2) % inhibition"),
    ("CC1(C)C2CC=C(COC(=O)c3cnn4cccnc34)C1C2 (centres unmarked)", "-2 (0.8) % inhibition"),
    ("O=C(Oc1ccc2c3c(c(=O)oc2c1)CCC3)c1cccc(Cl)c1", "17.4 (0.4) % inhibition"),
    ("COc1ccc(-c2nn(C(C)=O)c3c2C(=O)CC(C)(C)C3)cc1", "-3.7 (0.3) % inhibition"),
    ("O=C1C[C@@H](c2noc(-c3ccc[nH]c3=O)n2)CN1Cc1ccccc1", "0.9 (3.6) % inhibition"),
    ("COCCCNC(=O)c1nc2c3c4c(sc3ncn2n1)CCC[C@H]4C", "4.6 (7.7) % inhibition"),
    ("CCc1nnc(NC(=O)c2nn(-c3ccc(C)cc3)ccc2=O)s1", "0.2 (3.6) % inhibition"),
    ("CC(C)n1ccc(=O)nc1SC1CCN(c2ccccc2F)C1=O (centres unmarked)", "1.4 (0.1) % inhibition"),
]

* * *

Measured % inhibition of control activity, EGFR (Eurofins) accompanies every entry in the list below.
# experimental system: EGFR (Homo sapiens, UniProt P00533)
# Construct: purchased DiscoverX (KINOMEscan service); host or cells: E. coli BL21-derived host (T7 phage) or HEK-293
# Sequence (P00533 25-1210): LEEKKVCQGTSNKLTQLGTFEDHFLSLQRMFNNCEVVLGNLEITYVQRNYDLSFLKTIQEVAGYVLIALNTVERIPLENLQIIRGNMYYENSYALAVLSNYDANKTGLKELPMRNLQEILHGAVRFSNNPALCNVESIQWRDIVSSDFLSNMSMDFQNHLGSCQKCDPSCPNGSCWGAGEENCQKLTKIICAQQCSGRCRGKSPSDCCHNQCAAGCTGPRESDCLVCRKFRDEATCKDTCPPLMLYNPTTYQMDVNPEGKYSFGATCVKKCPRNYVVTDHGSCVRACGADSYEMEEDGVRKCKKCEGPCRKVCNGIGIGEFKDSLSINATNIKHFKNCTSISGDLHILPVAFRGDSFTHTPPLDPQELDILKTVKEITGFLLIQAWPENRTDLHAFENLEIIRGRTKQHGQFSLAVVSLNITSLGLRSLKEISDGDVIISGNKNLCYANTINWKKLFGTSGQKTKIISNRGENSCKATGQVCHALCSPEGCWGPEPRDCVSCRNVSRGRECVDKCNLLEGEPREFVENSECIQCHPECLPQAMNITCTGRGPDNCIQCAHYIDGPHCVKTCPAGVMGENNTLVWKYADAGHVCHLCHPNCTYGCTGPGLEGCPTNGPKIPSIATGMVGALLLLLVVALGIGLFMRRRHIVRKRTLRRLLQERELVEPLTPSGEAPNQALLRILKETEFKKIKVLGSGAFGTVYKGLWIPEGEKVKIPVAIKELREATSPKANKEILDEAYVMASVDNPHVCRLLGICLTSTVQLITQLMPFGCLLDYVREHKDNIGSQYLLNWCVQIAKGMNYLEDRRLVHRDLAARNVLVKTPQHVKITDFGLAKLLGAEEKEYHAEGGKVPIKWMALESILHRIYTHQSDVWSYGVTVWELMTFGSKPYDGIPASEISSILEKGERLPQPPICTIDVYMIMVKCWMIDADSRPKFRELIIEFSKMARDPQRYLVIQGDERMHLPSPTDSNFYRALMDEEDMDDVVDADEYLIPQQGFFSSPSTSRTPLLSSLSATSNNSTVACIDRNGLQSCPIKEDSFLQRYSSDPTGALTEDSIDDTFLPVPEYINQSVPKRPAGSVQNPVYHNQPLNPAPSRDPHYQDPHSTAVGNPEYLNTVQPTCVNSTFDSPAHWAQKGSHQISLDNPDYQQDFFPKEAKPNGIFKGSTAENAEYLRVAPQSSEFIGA
# method: Eurofins in vitro kinase inhibition assay
# Format: biochemical
# run conditions: compound 20 µM; mean (SD); above 50% significant, 25-50% weak
metric: % inhibition of control activity, EGFR (Eurofins)

# compound, reported measurement
measured = [
    ("CCOCCCNC(=O)c1nc2c3c4c(sc3ncn2n1)CC[C@@H](C)C4", "12.6 (1.9) % inhibition"),
    ("O=C(Cn1cnc2c(cnn2CCO)c1=O)NCc1ccccc1", "11.1 (1.8) % inhibition"),
    ("COc1ccc(-c2nn(C(C)=O)c3c2C(=O)CC(C)(C)C3)cc1", "15.3 (7.7) % inhibition"),
    ("O=C1C[C@@H](c2noc(-c3ccc[nH]c3=O)n2)CN1Cc1ccccc1", "22.7 (15.5) % inhibition"),
    ("CC1(C)C2CC=C(COC(=O)c3cnn4cccnc34)C1C2 (stereo not drawn)", "16.1 (7.5) % inhibition"),
    ("COCCCNC(=O)c1nc2c3c4c(sc3ncn2n1)CC[C@H](C)C4", "9.6 (0.2) % inhibition"),
    ("COCCCNC(=O)c1nc2c3c4c(sc3ncn2n1)CCC[C@H]4C", "14.5 (8.6) % inhibition"),
    ("Cc1cc(=O)n2nc(N(C)CC(=O)NCc3cccs3)sc2n1", "19.8 (5.0) % inhibition"),
    ("COCCCNC(=O)c1nc2c3c4c(sc3ncn2n1)COC(C)(C)C4", "18.1 (7.9) % inhibition"),
    ("O=C(Oc1ccc2c3c(c(=O)oc2c1)CCC3)c1cccc(Cl)c1", "3.2 (10.7) % inhibition"),
    ("O=C(NCC1CC1)Nc1ccc(N2CCOC2=O)cc1", "4.3 (6.9) % inhibition"),
    ("Cc1ccc(-n2cnnn2)cc1NC(=O)NCC1CC1", "4.4 (14.0) % inhibition"),
]

* * *

# experimental system: CDK2 (Homo sapiens, UniProt P24941)
# Construct: purchased DiscoverX (KINOMEscan service); host or cells: E. coli BL21-derived host (T7 phage) or HEK-293
# method: DiscoverX KINOMEscan competition binding assay
# run conditions: compound 10 µM; lower values = higher affinity; below 35% = significant binding
# Method: Ligand binding experiments for the molecules selected from Profiles 1 and 2 towards nine kinases (EGFR, ErbB2, LCK, CDK2, BRAF, MET, p38α, PI3K and VEGFR2) and for molecules selected from Profiles 3 and 4 towards four kinases (EGFR, ErbB2, BRAF and VEGFR2) were carried out by DiscoverX using the supplied protocol as described in the Supplementary Materials. […]
metric: % control, CDK2 (DiscoverX) (% control)

# molecule, reported measurement
measured = [
    ("O=C(NCC1CC1)Nc1ccc(N2CCOC2=O)cc1", 100),
    ("CCc1nccc(-c2nccn2C(Cn2cccn2)c2ccccc2)n1 (stereo not drawn)", 99),
    ("Cc1[nH]c2nc3c(c(=O)n(Cc4ccccc4)c(=O)n3C)n2c1C", 100),
]

FYI, the data here is from paper PMC7865522.
